B1: CPEB3 Ribozyme (parent)
chain: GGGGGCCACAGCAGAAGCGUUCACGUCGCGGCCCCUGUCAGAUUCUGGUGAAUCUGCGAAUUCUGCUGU

Variants of: B1
Test: self-cleavage, relative activity (ratio to wild type); higher = more cleavage; co-transcriptional
Parameter class (string): assigned from measured self-cleavage. Ranges: interval 1 (below 0.2), interval 2 (0.2 to below 0.6), interval 3 (0.6 or more)

1. GGGGGCCACAGCAGAAACGUUCACGUCGCGGCCCCUGUCAGAUUCUGGUGAAUCUGCGAACUCUGCUGU [G17A U61C] | interval 2
2. GGGGGCCACAGCAGAAGCGUUCAUGUCGCGGCCCCUGUCAGAUUCUGGUGAAUCUGCGUAUUCUGCUGU [C24U A59U] | interval 2
3. GGGGGCCACAGCAGAAGCGUUCACGUCGCGGCCCCUGUCAGAUUCUGGUGAAUGUGCGAAUUCAGCUGU [C54G U64A] | interval 3
4. GGGGGCCACAGCAGAAGCGUUCACGGCGCGGCCACUGUCAGAUUCUGGUGAAUCUGCGAAUUCUGCUGU [U26G C34A] | interval 2
5. GGGGGCCACAGCAGCAGCGUUCACGUCGCGGCCCCUGUCAUAUUCUGGUGAAUCUGCGAAUUCUGCUGU [A15C G41U] | interval 2
6. GGGGGCCACAGCAGAAGCGUUUACGUCGCGGCCCCUGUCAGAUUCUGGUGAAUCUGCGAAUUCUGUUGU [C22U C66U] | interval 2
7. GGGGGCCACAGCAGAAGCGUUCAAGUCGCGGCCCCUGUCAGAUUCUGGUGACUCUGCGAAUUCUGCUGU [C24A A52C] | interval 3
8. GGGGGCCACUGCAGAAGCGUUCACGUCGCGGCCCCUGUCAGCUUCUGGUGAAUCUGCGAAUUCUGCUGU [A10U A42C] | interval 3
9. GGGGGCCACAGCAGAAGCGUUCACGUCGCGGUCGCUGUCAGAUUCUGGUGAAUCUGCGAAUUCUGCUGU [C32U C34G] | interval 2
10. GGGGGCCACAGCAGAAGCGGUCACGUAGCGGCCCCUGUCAGAUUCUGGUGAAUCUGCGAAUUCUGCUGU [U20G C27A] | interval 1
11. GGGGGCCACAGCAGAAGCGUUCACGUCGCGGCCCCUGUCAGAUUCUGGUGCAUCUGCGAACUCUGCUGU [A51C U61C] | interval 3
12. GGGGGCCACAGCAGAUGCGUUCACGUUGCGGCCCCUGUCAGAUUCUGGUGAAUCUGCGAAUUCUGCUGU [A16U C27U] | interval 1
13. GGGGGCCACAGCAGAAGCGUUCACGUCGCGGCCCCUGUCAGAUUCUGGUGAAUCUGCAAAUUCUUCUGU [G58A G65U] | interval 3
14. GGGGGCCACAGCAGAAGCGUUCACGUCGCGGCCUCUAUCAGAUUCUGGUGAAUCUGCGAAUUCUGCUGU [C34U G37A] | interval 2
15. GGGGGCCACAGAAGAUGCGUUCACGUCGCGGCCCCUGUCAGAUUCUGGUGAAUCUGCGAAUUCUGCUGU [C12A A16U] | interval 2
16. GGGGGCCACAGCCGAAGCGUUCACGUCGCGGCCUCUGUCAGAUUCUGGUGAAUCUGCGAAUUCUGCUGU [A13C C34U] | interval 3
17. CGGGGCCACAGCAGAAGCGUUCACGUCGCUGCCCCUGUCAGAUUCUGGUGAAUCUGCGAAUUCUGCUGU [G1C G30U] | interval 1
18. GGGGGCCACAGCAGAAGCGUUCACGUGGCGGCCCCUGUCAGAUUCUGGUGAAUAUGCGAAUUCUGCUGU [C27G C54A] | interval 1
19. GGGGGCCACAGCAGAAGCGUUCACGUCGCGGCCCCUGUCAGAUUCUGGUGAAUCUGCGACUUCUACUGU [A60C G65A] | interval 2
20. GGGGGCCACACCAGAAGCGUUCACGUCGCGGCCCCUGUCAGAUCCUGGUGAAUCUGCGAAUUCUGCUGU [G11C U44C] | interval 2
21. GGGGGCCACAGGAGACGCGUUCACGUCGCGGCCCCUGUCAGAUUCUGGUGAAUCUGCGAAUUCUGCUGU [C12G A16C] | interval 1
22. GGGGGCCCCAGCAGAAGCGUUCACGUCGCGGCCCCUGUCAGAUUCUGGUUAAUCUGCGAAUUCUGCUGU [A8C G50U] | interval 3
23. GGGGGCCACAGCAGAAGCGUUCACGUCGCGGCCCCUGUCAGAUUCUGGUGAAUCUGCGAAUUCUACUGA [G65A U69A] | interval 3
24. GGGGGGCACAGCAGAAGCGUUCACGUCCCGGCCCCUGUCAGAUUCUGGUGAAUCUGCGAAUUCUGCUGU [C6G G28C] | interval 1
25. GGGGGCCACAGCAGAAGCGUUCACGUCGUGGCCCCUGUGAGAUUCUGGUGAAUCUGCGAAUUCUGCUGU [C29U C39G] | interval 1
26. GGGGGCCACGGCAGAAGCGUUCACGUCGCGGCCCCUGCCAGAUUCUGGUGAAUCUGCGAAUUCUGCUGU [A10G U38C] | interval 3
27. GGGGGCCACAGCAGAAGGGUUCACGUCGCGGCCCCUGUCAGAUCCUGGUGAAUCUGCGAAUUCUGCUGU [C18G U44C] | interval 1
28. GGGGCCCACAGCAGAAGCGUUCACGUCGCGGCCCCUGUCAGAUUCGGGUGAAUCUGCGAAUUCUGCUGU [G5C U46G] | interval 2
29. GGGGGUCACAGCAGAAGCGUUCACGUCGCGGCCCCUGUCAGAUUCUGGUGAAUCUGCGAAUUCUGCAGU [C6U U67A] | interval 3
30. GGGGGCCACAGCAGAAACGUUCACGUCGCGGCCCCUGUCAGAUUCUGGUGAAUCCGCGAAUUCUGCUGU [G17A U55C] | interval 1
31. GGGGGCCACAGCAGAAGCGUUCACGUCGCGGCCCCUGUCAGAUUCUUGUGGAUCUGCGAAUUCUGCUGU [G47U A51G] | interval 3
32. GGUGGCCACAGCAGAAGCGUUCACGUCGCGGCCCCUGUCAGAUUCUGGUGAAUCUGCGAAUUCUGCUUU [G3U G68U] | interval 2
33. GGGGGCCACAGCAUAAGCGUUCACGUCGCGGCCCCUGUCAGAUUCUGGUGAAUCUGCGAUUUCUGCUGU [G14U A60U] | interval 2
34. GGGGUCCACAGCAGAAGCGUUCACGUCGCGGCCCCUGUCAGAUUCUGGUGAAUGUGCGAAUUCUGCUGU [G5U C54G] | interval 1
35. GGGGGCCACAGCAGAAGCGUUCACGUCGCGGCCCCUGUCAGGUUCUGGUGAAUCUGCGAAUUCUGCUAU [A42G G68A] | interval 3
36. GGGGGCCACAACAGAAGCGUUCACGUUGCGGCCCCUGUCAGAUUCUGGUGAAUCUGCGAAUUCUGCUGU [G11A C27U] | interval 1
37. GGGGGCCACAGCAGAAGCGUUCACGUCGCGGCCCCUGUCUGAUUCUGGUGAAUCUGCGAAAUCUGCUGU [A40U U61A] | interval 2
38. GGGGGCCACAGUAGAAGCGUUCACGUCGCGGCCCCUGUCAGAUUCUGGAGAAUCUGCGAAUUCUGCUGU [C12U U49A] | interval 3
39. GGGGACCACAGCAGAAGCGUUCACGUCGCGGCCCCUGUCAGAUUCUGGUUAAUCUGCGAAUUCUGCUGU [G5A G50U] | interval 3
40. GUGGGCCACGGCAGAAGCGUUCACGUCGCGGCCCCUGUCAGAUUCUGGUGAAUCUGCGAAUUCUGCUGU [G2U A10G] | interval 1
41. GGGGGCCACAGCAGAAGCGUUCACGUCGCGGCCUCUGUCAGAUUAUGGUGAAUCUGCGAAUUCUGCUGU [C34U C45A] | interval 3
42. GGGGGCCACAGCAGAAGCGUUCACGUCGCGGCCCCUGUCAGAUACUGGCGAAUCUGCGAAUUCUGCUGU [U44A U49C] | interval 3
43. GGGGGCCCCAGCAGAAGCGUUCACGUCGCGGCCCCUGUCCGAUUCUGGUGAAUCUGCGAAUUCUGCUGU [A8C A40C] | interval 3
44. GGGGGCCACAGCAGAAGCGCUCACGUCGCGGCCCCUGUCAGAUUCUGGUAAAUCUGCGAAUUCUGCUGU [U20C G50A] | interval 1
45. GGGGGCCACAGUAGAAGCGUUCACGUCGCGGCCCCUGUCAGAUUUUGGUGAAUCUGCGAAUUCUGCUGU [C12U C45U] | interval 3
